# MEASUREMENT_TARGET: DNA (cytosine-5)-methyltransferase 1 (Homo sapiens, UniProt P26358)
# Sequence (P26358 whole entry, the tested form may be a part): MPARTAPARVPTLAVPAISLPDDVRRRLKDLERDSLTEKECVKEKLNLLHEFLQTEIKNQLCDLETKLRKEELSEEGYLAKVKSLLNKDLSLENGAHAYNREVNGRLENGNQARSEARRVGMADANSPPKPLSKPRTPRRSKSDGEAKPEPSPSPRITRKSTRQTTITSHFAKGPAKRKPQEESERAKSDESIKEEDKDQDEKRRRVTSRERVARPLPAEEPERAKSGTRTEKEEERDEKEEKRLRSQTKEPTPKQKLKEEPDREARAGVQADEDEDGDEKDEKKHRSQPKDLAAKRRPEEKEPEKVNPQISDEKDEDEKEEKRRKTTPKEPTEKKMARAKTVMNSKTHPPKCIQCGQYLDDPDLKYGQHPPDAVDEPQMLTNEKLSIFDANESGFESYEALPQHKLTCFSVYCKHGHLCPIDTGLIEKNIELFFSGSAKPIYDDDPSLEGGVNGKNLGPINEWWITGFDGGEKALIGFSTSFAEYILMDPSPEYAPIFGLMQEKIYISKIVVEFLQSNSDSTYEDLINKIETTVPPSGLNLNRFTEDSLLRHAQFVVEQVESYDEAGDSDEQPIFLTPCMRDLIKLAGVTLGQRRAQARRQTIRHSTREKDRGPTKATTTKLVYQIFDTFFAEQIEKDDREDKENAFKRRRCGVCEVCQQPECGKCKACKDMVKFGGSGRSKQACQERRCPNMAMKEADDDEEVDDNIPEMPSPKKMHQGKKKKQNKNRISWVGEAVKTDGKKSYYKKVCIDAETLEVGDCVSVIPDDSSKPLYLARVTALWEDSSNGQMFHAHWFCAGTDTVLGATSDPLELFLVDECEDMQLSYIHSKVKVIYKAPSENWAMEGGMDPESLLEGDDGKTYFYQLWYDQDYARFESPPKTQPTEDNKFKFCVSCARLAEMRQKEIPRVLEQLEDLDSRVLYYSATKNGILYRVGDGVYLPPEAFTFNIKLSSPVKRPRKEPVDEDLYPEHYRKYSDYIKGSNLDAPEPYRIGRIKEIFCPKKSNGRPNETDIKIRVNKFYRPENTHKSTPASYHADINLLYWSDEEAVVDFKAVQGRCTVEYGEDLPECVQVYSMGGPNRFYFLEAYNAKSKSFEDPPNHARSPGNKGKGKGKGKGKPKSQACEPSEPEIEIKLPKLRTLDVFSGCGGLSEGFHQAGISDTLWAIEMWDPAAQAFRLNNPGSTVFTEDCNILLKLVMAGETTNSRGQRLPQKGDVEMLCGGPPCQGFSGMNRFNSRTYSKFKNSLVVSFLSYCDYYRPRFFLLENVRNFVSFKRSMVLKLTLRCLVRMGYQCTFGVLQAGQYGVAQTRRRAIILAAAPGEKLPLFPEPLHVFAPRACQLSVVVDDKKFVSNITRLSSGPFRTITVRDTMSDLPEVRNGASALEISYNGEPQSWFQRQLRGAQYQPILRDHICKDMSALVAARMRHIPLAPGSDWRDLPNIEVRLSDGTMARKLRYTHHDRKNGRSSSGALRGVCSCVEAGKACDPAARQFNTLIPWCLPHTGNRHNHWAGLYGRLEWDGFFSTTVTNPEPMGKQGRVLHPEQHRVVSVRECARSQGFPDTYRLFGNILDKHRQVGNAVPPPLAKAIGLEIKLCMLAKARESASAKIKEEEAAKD
# TEST_PROTOCOL: Inhibition of N-terminal GST-tagged recombinant full length human DNMT1 (2 to 1632 residues) using poly(dI-dC)):poly(dI-dC) as substrate preincubated for 20 mins followed by [3H]-SAM and measured after 60 mins by scintillation counting
EXPERIMENTAL_READOUT: IC50 (µM)
// units = µM; emit number, no label

Problem: Can you look up the measured IC50 of COc1cc2c(cc1OCCCN1CCCC1)N=C(C1CCCCC1)CN=C2NC1CCN(C(C)C)CC1 for me?
Solution: 3.1

###

# MEASUREMENT_TARGET: Histone-lysine N-methyltransferase EHMT2 (Homo sapiens, UniProt Q96KQ7)
# Sequence (Q96KQ7 whole entry): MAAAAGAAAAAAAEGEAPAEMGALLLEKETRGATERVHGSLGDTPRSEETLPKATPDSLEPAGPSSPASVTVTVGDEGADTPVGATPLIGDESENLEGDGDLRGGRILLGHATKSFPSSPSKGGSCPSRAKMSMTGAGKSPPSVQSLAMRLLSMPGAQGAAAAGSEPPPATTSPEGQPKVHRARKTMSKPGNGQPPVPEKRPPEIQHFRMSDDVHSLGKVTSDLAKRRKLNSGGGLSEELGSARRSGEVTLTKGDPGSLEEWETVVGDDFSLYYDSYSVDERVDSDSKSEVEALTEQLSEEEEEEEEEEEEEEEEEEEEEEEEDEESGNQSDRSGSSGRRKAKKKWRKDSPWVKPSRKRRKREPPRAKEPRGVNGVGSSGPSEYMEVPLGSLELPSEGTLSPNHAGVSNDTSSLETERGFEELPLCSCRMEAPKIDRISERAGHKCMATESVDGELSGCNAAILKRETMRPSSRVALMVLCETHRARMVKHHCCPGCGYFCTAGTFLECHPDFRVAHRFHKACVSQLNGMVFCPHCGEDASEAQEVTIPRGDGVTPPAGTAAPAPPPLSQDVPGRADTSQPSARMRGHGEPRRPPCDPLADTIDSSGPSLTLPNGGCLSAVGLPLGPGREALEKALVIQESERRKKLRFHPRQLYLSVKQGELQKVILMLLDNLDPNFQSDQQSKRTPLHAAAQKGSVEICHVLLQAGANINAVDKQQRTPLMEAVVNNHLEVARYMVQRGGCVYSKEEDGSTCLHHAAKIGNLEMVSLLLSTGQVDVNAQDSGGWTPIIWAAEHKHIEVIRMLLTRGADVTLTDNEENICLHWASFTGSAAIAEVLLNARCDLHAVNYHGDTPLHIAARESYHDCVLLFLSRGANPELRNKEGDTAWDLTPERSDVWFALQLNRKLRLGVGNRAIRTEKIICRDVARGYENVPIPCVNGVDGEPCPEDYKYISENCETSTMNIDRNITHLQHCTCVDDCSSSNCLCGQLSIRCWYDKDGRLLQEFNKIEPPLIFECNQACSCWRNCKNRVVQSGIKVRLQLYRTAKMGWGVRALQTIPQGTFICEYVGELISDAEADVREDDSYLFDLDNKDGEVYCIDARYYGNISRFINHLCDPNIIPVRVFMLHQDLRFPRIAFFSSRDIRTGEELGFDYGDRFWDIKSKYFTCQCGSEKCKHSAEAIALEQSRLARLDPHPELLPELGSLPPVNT
# TEST_PROTOCOL: Inhibition G9a (unknown origin)
EXPERIMENTAL_READOUT: IC50 (nM)
// units = nM; emit number, no label

Problem: Can you look up the measured IC50 of COc1cc2c(NC3CCN(CCCCCN)CC3)nc(NCCCN(C)C)nc2cc1OCCCCCN for me?
Solution: 160

Recorded values, source ChEMBL document CHEMBL4400539.
